Recorded IC50 for molecules tested on Amine oxidase [flavin-containing] A (Rattus norvegicus), drawn from a number of studies.
measurement.type: IC50 (nM)

Solved cases below.
molecule: NC(=O)[C@H](CO)NCc1ccc(OCc2cccc(Cl)c2)cc1
display.unit: nM
IC50: 84000
//
molecule: CN(CCC#N)c1nc2ccc(N3CC(CO)OC3=O)cc2s1 (centres unmarked)
display.unit: nM
IC50: 19

[a] COCC1CN(c2ccc3nc(CCC#N)sc3c2)C(=O)O1 (centres unmarked)
[b] O=S1(=O)c2ccccc2Oc2cc(OC(CO)C(F)(F)F)ccc21 (racemic)
Asked: Of a and b , whose reported IC50 is the larger number? // caller expects the label of the chosen entry
Given back: a
(a: 256 nM, b: 5 nM)

###

IC50 for Amine oxidase [flavin-containing] A (Rattus norvegicus, UniProt P21396) - collated from the literature.

Reference set, count: 4
compound: Cc1c(C)c2ccc(OCc3ccc4ccccc4c3)cc2oc1=O
IC50: > 10 µM
//
compound: COC(C)c1cc(COc2ccc3c(C)c(C)c(=O)oc3c2)on1 (stereo not shown)
IC50: 2.9 µM
//
compound: Cc1c(C)c2ccc(OCc3cc(CC(C)C)no3)cc2oc1=O
IC50: ~10 µM
//
compound: Cc1nnc(COc2ccc3cc(C)c(=O)oc3c2)s1
IC50: > 10 µM

Asked: Give recorded IC50 with Amine oxidase [flavin-containing] A (Rattus norvegicus, UniProt P21396) for the following compound: N#CCN1C(=O)SC(=Cc2ccc(OCCc3ccccc3)cc2)C1=O
Given back: 30 µM

Asked: Identify the measured IC50 of Cc1cc(=O)oc2cc(OCc3ccc(C(C)C)cc3)ccc12 for Amine oxidase [flavin-containing] A (Rattus norvegicus, UniProt P21396).
Given back: > 10 µM

Asked: Param readout = IC50; param system = Amine oxidase [flavin-containing] A (Rattus norvegicus, UniProt P21396); param query = Cc1cc2ccc(OCc3ccc(C(C)C)cc3)cc2oc1=O ; response: value
Given back: > 10 µM

Asked: Kindly state the measured IC50 obtained for N#CCCn1nnc(-c2ccc(-c3ccccc3)cc2)n1 with Amine oxidase [flavin-containing] A (Rattus norvegicus, UniProt P21396).
Given back: 7.8 µM

Asked: Form field - read-out: IC50; system: Amine oxidase [flavin-containing] A (Rattus norvegicus, UniProt P21396); submitted item: Cc1c(C)c2ccc(OCc3nnc(C(C)C)s3)cc2oc1=S
Given back: > 10 µM

Asked: Lab request: please report IC50 under test system Amine oxidase [flavin-containing] A (Rattus norvegicus, UniProt P21396) for CC(C)Oc1cc2c(c(F)c1F)S(=O)(=O)c1ccccc1O2
Given back: 0.003 µM

Asked: Give Amine oxidase [flavin-containing] A (Rattus norvegicus, UniProt P21396) IC50 for O=C1NC(=O)C(Cc2ccc(OCC34CC5CC(CC(C5)C3)C4)cc2)S1 (stereo not shown)
Given back: 30 µM

###

// note: pIC50 values for Amine oxidase [flavin-containing] A (Rattus norvegicus, UniProt P21396) were reported in different studies
pIC50: −log10 of the molar value.
measurement.type: pIC50

molecule: COCC1CN(c2ccc3nc(CNCC#N)sc3c2)C(=O)O1 (stereo not drawn)
assay.result: 7.41

molecule: CNCCc1cc(=O)oc2cc(OCc3cccc(Cl)c3)ccc12
assay.result: 4.13

molecule: CC(Oc1ccc2c(c1)Oc1ccccc1S2(=O)=O)C(F)(F)F (single isomer, unassigned)
assay.result: 7.85

[1] CC(C)Oc1ccc2c(c1)Oc1cc(F)ccc1S2(=O)=O
[2] N#CCCCN1C(=O)SC(=Cc2ccc(OCc3cccc(Cl)c3)cc2)C1=O
Asked: Of 1 and 2 , which shows the smaller pIC50 value? Output the label that corresponds to your choice.
Given back: 2
